assayExplanation: IAM chromatography on new IAM.PC.DD2 columns (gradient HPLC, CHI (IAM))
Type: physicochemical
Parameters: key: CHI (IAM) from retention times calibrated to predefined CHI standards
appliedConditions: new IAM.PC.DD2 column batch P20511-014-3, pH 7.4
Protocol: The IAM binding was measured using IAM.PC.DD2 HPLC columns (Regis Technologies, Inc., IL, USA) with dimensions of 100 x 4.6 mm, particle size 10 μm with 300 Å pore size. Two batches of IAM.PC.DD2 columns were studied (R20511-014-3 and P20511-014-3) that had been prepared using the new batches of silica support. […]
Threshold 30. P20511-014-3 CHI (IAM) below it: satisfied. P20511-014-3 CHI (IAM) at it or above: not satisfied.

# strict comparison: is reported P20511-014-3 CHI (IAM) < 30? input = Cc1c(Cl)cccc1Nc1ccccc1C(=O)O [Tolfenamic Acid]
not satisfied

Item COC(=O)C1=C(C)NC(C)=C(C(=O)OCCN(C)Cc2ccccc2)C1c1cccc([N+](=O)[O-])c1 (stereo not shown) [Nicardipine] : P20511-014-3 CHI (IAM) beneath 30, strictly?
not satisfied

Just wondering, is P20511-014-3 CHI (IAM) of CN(C)CCCN1c2ccccc2Sc2ccc(Cl)cc21 [Chlorpromazine] below 30?
not satisfied

Dear reviewer, please state whether Cc1ccc(C)c(OCCCC(C)(C)C(=O)O)c1 [Gemfibrozil] has P20511-014-3 CHI (IAM) strictly beneath 30.
not satisfied

I'd appreciate it if you could check whether COc1ccc2c(c1)c(CC(=O)O)c(C)n2C(=O)c1ccc(Cl)cc1 [Indomethacin] has P20511-014-3 CHI (IAM) smaller than 30.
not satisfied

Identify whether the molecule CCCN(CCC)S(=O)(=O)c1ccc(C(=O)O)cc1 [Probenecid] records P20511-014-3 CHI (IAM) below 30.
satisfied

Strictly below 30 in P20511-014-3 CHI (IAM)? COC1=CC(=O)C[C@@H](C)[C@]12Oc1c(Cl)c(OC)cc(OC)c1C2=O [Griseofulvin]
not satisfied

# TODO verify P20511-014-3 CHI (IAM) < 30 strictly for this molecule: Nc1cc(N2CCCCC2)nc(N)[n+]1[O-] [Minoxidil]
satisfied

Does the reported P20511-014-3 CHI (IAM) of the following molecule sit strictly below 30? C[C@]12C=CC(=O)C=C1CC[C@@H]1[C@@H]2C(=O)C[C@@]2(C)[C@H]1CC[C@]2(O)C(=O)CO [Prednisone]
satisfied

In the record for Cc1cc(C)nc(NS(=O)(=O)c2ccc(N)cc2)n1 [Sulphadimidine] , is P20511-014-3 CHI (IAM) less than 30?
satisfied

Does the reported P20511-014-3 CHI (IAM) of the following molecule sit strictly below 30? COc1ccc2cc(CCC(C)=O)ccc2c1 [Nabumetone]
not satisfied

I wonder whether Cn1c(=O)c2c(ncn2CC(O)CO)n(C)c1=O (stereo not shown) [Diprophylline] has P20511-014-3 CHI (IAM) below 30. Can you tell?
satisfied

Take the molecule CC(C(=O)O)c1cccc(C(=O)c2ccccc2)c1 (stereo not shown) [Ketoprofen] and say whether its P20511-014-3 CHI (IAM) is less than 30.
satisfied

Lab note: P20511-014-3 CHI (IAM) threshold 30. Does this molecule come in strictly under it? CC(C)NCC(O)COc1cccc2ccccc12 (stereo not shown) [Propranolol]
not satisfied

Take the molecule CN(C)CCCN1c2ccccc2CCc2ccccc21 [Imipramine] and say whether its P20511-014-3 CHI (IAM) is less than 30.
not satisfied

# strict comparison: is reported P20511-014-3 CHI (IAM) < 30? input = Nc1ccc(S(=O)(=O)Nc2ccc(Cl)nn2)cc1 [Sulfachlorpyridazine]
satisfied

Quick check: P20511-014-3 CHI (IAM) of NC(N)=Nc1nc(CSCCC(N)=NS(N)(=O)=O)cs1 [Famotidine] under 30?
satisfied

Hello, I'm reviewing records and need to know if P20511-014-3 CHI (IAM) of C[C@]12C=CC(=O)C=C1CC[C@@H]1[C@@H]2[C@@H](O)C[C@@]2(C)[C@H]1CC[C@]2(O)C(=O)CO [Prednisolone] is below 30. Could you check?
satisfied

src = paper PMC8915595
